These entries and their values trace back to paper PMC3667667.

Assay: Pharmacokinetics of efavirenz in healthy subjects
Conditions: male, human, in vivo, 400 mg, AUC0–24 h
Readout Name: AUC(0-t) (ng·h/mL)
Write the number in ng·h/mL without appending the unit.

Entry O=C1Nc2ccc(Cl)cc2[C@@](C#CC2CC2)(C(F)(F)F)O1 [efavirenz] has what AUC(0-t)?
6710

---

Test: Pharmacokinetics of efavirenz in healthy subjects
Conditions: male, human, in vivo, Tmax
Readout Name: Tmax

Entry O=C1Nc2ccc(Cl)cc2[C@@](C#CC2CC2)(C(F)(F)F)O1 [efavirenz] has what Tmax?
2 to 3 h

---

Test: Pharmacokinetics of efavirenz in healthy subjects
Settings: male, human, in vivo, 400 mg, T max
Readout Name: Tmax (h)
Write the number in h without appending the unit.

Entry `O=C1Nc2ccc(Cl)cc2[C@@](C#CC2CC2)(C(F)(F)F)O1` has what Tmax?
2.4
